Entries annotated with measured Neutralization PSV IC50
target: VP1 capsid protein on BKV pseudovirions of genotype IVc2 (A-66H; AB369093) (BK virus genotype IVc2 (A-66H)); test: cell-based or functional assay

The examples below pair each entry with its known result.
- Binder: "antibody F3P7 (antibody, V domains shown) VH: QVQLVQSGAEVKKPGASVKVSCKVSGYTFTSYSMHWLRQAPGQRLEWMGWINAGNGDTKYSQKFQGRITISRDTSARTTYMELSSLRSEDTAVFYCARSNSPTVTYNYYYYAMDVWGQGTTVTVSS VL: EIVLTQSPGTLSLSPGERATLSCRASQSVRSSYLAWYQQQAGQAPRLLIYDASSRATGIPDRFSGSGSGTDFSLTISRLDPEDFAVYYCQQYGNSPLTFGGGTKVEIK"
  Data value: "0.614 µg/mL"
- Binder: "antibody E6P5 (antibody, V domains shown) VH: EVQLVESGGGLVQPGRSLRLSCSASGFTFDDHAMHWVRQAPGKGLEWVAGINWNSASIVYADSVKGRFTISRDNVKNSLYLQMNSLRADDTALYYCAKDFGLWFGESRGIDAWGRGTTVTVSS VL: DIVMTQSPLSLPVTPGEPASISCRPSQSLLHSNGYNYLNWYLQKPGRSPQLLIYLGSNRASGVPDRFSGSGSGTDFTLKISRVEAEDVGIYYCMQALQTPITFGQGTRLEIK"
  Data value: "1.19 µg/mL"
- Binder: "antibody C6P7 (antibody, V domains shown) VH: QVQLQESGPGLVRPSQTLSLTCTVSGGSMTSGSYYWSWIRQPAEKGLEWIGRIYTSGRTDYNPSLKSRVAMSIDTSKNQFSLRLTSVTAADTAVYYCARWGDSSAYYYVGDPWGRGTPVTVSS VL: DIQMTQSPSSLSASIGDRVTITCRASQNINTYLYWYQQKPGKAPQLLIYAASNLQTGAPSRFSGSGSGTDFTLTISSLQPADFATYYCQQSFSLPHTFGQGTKVEIK"
  Data value: "0.0053 µg/mL"

Item antibody C10P8 (antibody, V domains shown) VH: QVQLQESGPGLVKPSQTLSLTCTVSGGSISSGRYYWSWIRQPAGKGLEWIGRVYFSGSTNYNPSLKNRVTLSVDTSKNQFSLKLSSVIAADTAVYYCARAVRDYGDSYSFDYWGQGTLVTVSS VL: QSALTQPASVSGSPGQSITISCTGSSSDIGGYNYVSWYQVHPGKAPHLKIYDVVNRPSGVSNRFPGSKSGNTASLTISGLLADDEAYYYCCSYSIRGTPVFGGGTKLTVL has what recorded Neutralization PSV IC50?
> 12.5 µg/mL

Data request, read-out Neutralization PSV IC50, for antibody B8P7 (antibody, V domains shown) VH: QVQLQESGPGLVRPSETLSLTCTVSGGSISPYYWNWIRQPPGKGLEWIGYIYYSGNTKYNPSLKSRVTISVDTSKNQFSLKLSSVSAADTAVYYCARDSCSGTCYLGDNWFDPWGQGTLVTVSS VL: QSVLTQPPSVSGAPGQRVTISCTGSSSNIGANNDVHWYQHLPGTAPKLLIYGNNHRPSGVPDRFSGSKSGTSASLAITGLQAEDEADYYCQSYDSSLSTSKVFGGGTKLTVL
0.164 µg/mL
